test: Serum metabolite concentrations and parent compound/metabolite ratios at baseline and in the third trimester (TDM, linear mixed model); conditions: baseline to third trimester (gestational week 34)
MEASURED_QUANTITY: Change from baseline conc., Estimate (parent compound or metabolite)

N[C@H]1CC[C@@H](c2ccc(Cl)c(Cl)c2)c2ccccc21 | +120%
CN[C@H]1CC[C@@H](c2ccc(Cl)c(Cl)c2)c2ccccc21 | +83%

Let's switch to this compound now.
Exercise: Requested field: Change from baseline conc., Estimate (parent compound or metabolite). Item: "CN(C)CCC[C@@]1(c2ccc(F)cc2)OCc2cc(C#N)ccc21"
Solution: +24%

* * *

assay: Serum metabolite concentrations and parent compound/metabolite ratios at baseline and in the third trimester (TDM, linear mixed model); conditions: loge-transformed; baseline (day 0 of pregnancy); only analyses with metabolite data
# Loge serum concentration, Intercept estimate (parent compound or metabolite) per record follows
Give only the figure.

Example molecules with recorded Loge serum concentration, Intercept estimate (parent compound or metabolite):
CN(C)CCC[C@@]1(c2ccc(F)cc2)OCc2cc(C#N)ccc21 [Escitalopram] | 2.129
N[C@H]1CC[C@@H](c2ccc(Cl)c(Cl)c2)c2ccccc21 [Desmethylsertraline] | 2.914

Let's switch to this molecule now.
Exercise: Requested field: Loge serum concentration, Intercept estimate (parent compound or metabolite). Item: CNCCCC1(c2ccc(F)cc2)OCc2cc(C#N)ccc21 (stereo not drawn) [Desmethylcitalopram]
Solution: 2.534
